- system tested: TNFR1
- Sequence (P19438 whole entry): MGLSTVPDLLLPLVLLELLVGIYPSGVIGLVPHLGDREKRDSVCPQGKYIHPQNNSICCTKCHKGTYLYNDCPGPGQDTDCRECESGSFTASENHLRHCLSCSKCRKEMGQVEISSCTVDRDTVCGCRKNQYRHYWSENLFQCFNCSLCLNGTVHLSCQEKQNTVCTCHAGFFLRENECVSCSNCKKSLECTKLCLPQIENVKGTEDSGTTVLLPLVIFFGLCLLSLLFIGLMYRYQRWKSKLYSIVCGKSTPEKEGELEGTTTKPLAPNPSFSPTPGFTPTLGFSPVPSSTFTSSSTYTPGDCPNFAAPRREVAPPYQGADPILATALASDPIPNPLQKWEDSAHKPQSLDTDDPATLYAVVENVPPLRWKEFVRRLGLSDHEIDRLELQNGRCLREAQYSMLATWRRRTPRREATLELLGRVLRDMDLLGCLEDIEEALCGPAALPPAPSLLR
pKd: −log10 of the molar value.
parameter measured: pKd

binder: DEQHLETELH (modifications not checked) [selective TNFR1 antagonist peptide Hydrostatin-SN10]
parameter measured: pKd
observed value: 5.55
